# IC50 measurements, system: c-Met (cytoplasmic domain) (Homo sapiens, UniProt P08581)
# Sequence (P08581 956-1390 limits assumed): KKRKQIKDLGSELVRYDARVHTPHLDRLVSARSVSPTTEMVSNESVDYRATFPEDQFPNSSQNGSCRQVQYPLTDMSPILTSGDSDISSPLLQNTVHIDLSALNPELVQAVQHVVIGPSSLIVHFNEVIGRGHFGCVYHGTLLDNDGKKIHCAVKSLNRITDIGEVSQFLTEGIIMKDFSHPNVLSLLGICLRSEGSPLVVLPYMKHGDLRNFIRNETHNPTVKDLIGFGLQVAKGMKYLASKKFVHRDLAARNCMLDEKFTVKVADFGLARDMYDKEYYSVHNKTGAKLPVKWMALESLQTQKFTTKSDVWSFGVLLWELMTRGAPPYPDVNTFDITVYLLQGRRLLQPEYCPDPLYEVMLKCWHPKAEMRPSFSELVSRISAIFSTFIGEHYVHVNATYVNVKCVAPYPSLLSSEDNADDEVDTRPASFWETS
Counter-ions that a name gives are not always drawn.

{"COMPOUND": "CN(C)CCCCNC(=O)c1ccc(-c2cnc3c(c2)N(Cc2c(Cl)cccc2Cl)C(=O)CN3)cc1 [Example 144, trifluoroacetic acid salt]", "IC50": "1 to 10 µM"}
{"COMPOUND": "O=C(NCc1cccnc1)c1cnc2c(c1)N(Cc1cc(Cl)ccc1Cl)CCN2", "IC50": "10 to 100 µM"}
{"COMPOUND": "O=C(c1cnc2c(c1)N(Cc1cc(Cl)ccc1Cl)CCN2)N1CCN(CC2CCCCC2)CC1", "IC50": "> 100 µM"}
{"COMPOUND": "O=C(NCC1CCCO1)c1cnc2c(c1)N(Cc1cc(Cl)ccc1Cl)CCN2 (centres unmarked)", "IC50": "> 100 µM"}
{"COMPOUND": "CN1CCN(C(=O)c2ccc(-c3cnc4c(c3)N(Cc3cc(F)ccc3F)C(=O)C(C)(C)N4)cc2)CC1", "IC50": "10 to 100 µM"}
{"COMPOUND": "O=C(NCCc1ccccn1)c1cnc2c(c1)N(Cc1cc(Cl)ccc1Cl)CCN2", "IC50": "> 100 µM"}
{"COMPOUND": "O=S1(=O)CCN(CC#Cc2cnc3c(c2)N(Cc2cc(Cl)ccc2Cl)CCN3)CC1", "IC50": "10 to 100 µM"}
{"COMPOUND": "O=C(c1ccc(-c2cnc3c(c2)N(Cc2cc(Cl)ccc2Cl)C(=O)CN3)cc1)N1CCC(N2CCCC2)CC1", "IC50": "0.1 to 1 µM"}
{"COMPOUND": "O=C(c1ccc(-c2cnc3c(c2)N(Cc2c(Cl)cccc2Cl)C(=O)CN3)cc1)N1CCC(N2CCCC2)CC1", "IC50": "0.1 to 1 µM"}
{"COMPOUND": "FC(F)(F)c1ccc(Cl)c(CN2CCNc3ncc(I)cc32)c1", "IC50": "> 100 µM"}

For the 5 compounds below, give their IC50 values.
1. O=C(O)c1cnc2c(c1)N(Cc1cc(Cl)ccc1Cl)CCN2
2. CN(C)CCNC(=O)c1cccc(-c2cnc3c(c2)N(Cc2ccccc2)C(=O)CN3)c1 [Example 19, trifluoroacetic acid salt]
3. CC(c1cc(F)c(F)cc1F)N1C(=O)CNc2ncc(-c3ccc(C(=O)N4CCN(C)CC4)cc3)cc21 (centres unmarked) [Example 146, trifluoroacetic acid salt]
4. CN1CCN(c2ccc(-c3cnc4c(c3)N(Cc3c(F)ccc(F)c3Cl)CC(=O)N4)cn2)CC1
5. N#Cc1cnc2c(c1)N(Cc1cc(Cl)ccc1Cl)CCN2

Result:
10 to 100 µM
10 to 100 µM
10 to 100 µM
1 to 10 µM
> 100 µM

For the 6 compounds below, give their IC50 values.
1. CN1CCN(c2ccc(-c3cnc4c(c3)NCCN4)cn2)CC1
2. O=C(c1ccccc1)N1CCNc2ncccc21
3. CN(C)CC(=O)NCC#Cc1cnc2c(c1)N(Cc1c(Cl)cccc1Cl)CCN2
4. CCOC(=O)CNc1ncc(I)cc1[N+](=O)[O-]
5. CCOC(=O)c1cnc2c(c1)N(Cc1cc(F)ccc1F)CCN2
6. CC(c1c(F)ccc(F)c1Cl)N1CCNc2ncc(-c3ccc(N4CCN(C)CC4)nc3)cc21 (centres unmarked)

Result:
["> 100 µM", "> 100 µM", "10 to 100 µM", "10 to 100 µM", "10 to 100 µM", "1 to 10 µM"]
